Test system: human EGFR mRNA
Assay: Down-regulation of EGFR mRNA in transfected 15PC3 cells, real-time PCR
Type: cell-based
Conditions: 25 nM
In the oligonucleotide strings, read from the 5' end, every base follows the letter of its sugar. An asterisk marks phosphorothioate; unmarked linkages are phosphodiester. Other units and linkages are bracketed, terminal groups are in braces. A string of capitals states the bases alone. l = locked nucleic acid (LNA); [5mC] = 5-methylcytosine; d = 2'-deoxy (DNA)
Listed substances paired with reported EGFR: percentage down-regulation of mRNA relative to mock transfected cells
The reply should contain only the number, in %.

Previously resolved entries follow.
| Substance | Uom | Quantitative result |
| --- | --- | --- |
| GSCSTScScSaSgSaScSaStScSaSCSTSC (antisense lG*l[5mC]*lT*dC*dC*dA*dG*dA*dC*dA*dT*dC*dA*l[5mC]*lT*l[5mC]) [SEQ ID NO: 169, β-D-oxy-LNA/DNA phosphorothioate gapmer antisense oligonucleotide targeting HER3] | % | 95.2 |
| CSASGSaScSaStScSaScStScStSGSGST (antisense l[5mC]*lA*lG*dA*dC*dA*dT*dC*dA*dC*dT*dC*dT*lG*lG*lT) [SEQ ID NO: 171, β-D-oxy-LNA/DNA phosphorothioate gapmer antisense oligonucleotide targeting HER3] | % | 84.2 |
| CSASTSgStSaSgSaScSaStScSaSASTST (l[5mC]*lA*lT*dG*dT*dA*dG*dA*dC*dA*dT*dC*dA*lA*lT*lT; antisense) [SEQ ID NO: 179] | % | 52.6 |

Query string: Provide the reported EGFR: percentage down-regulation of mRNA relative to mock transfected cells (system: human EGFR mRNA) for CSASTScScSaSaScSaScStStSgSASCSC (antisense l[5mC]*lA*lT*dC*dC*dA*dA*dC*dA*dC*dT*dT*dG*lA*l[5mC]*l[5mC]) [SEQ ID NO: 175, β-D-oxy-LNA/DNA phosphorothioate gapmer antisense oligonucleotide targeting HER3]
Result string: 86.1

Query string: Provide the reported EGFR: percentage down-regulation of mRNA relative to mock transfected cells (system: human EGFR mRNA) for ASTSASgScStScScSaSgSaScSaSTSCSA (antisense lA*lT*lA*dG*dC*dT*dC*dC*dA*dG*dA*dC*dA*lT*l[5mC]*lA) [SEQ ID NO: 173, β-D-oxy-LNA/DNA phosphorothioate gapmer antisense oligonucleotide targeting HER3]
Result string: 96.4

Query string: Provide the reported EGFR: percentage down-regulation of mRNA relative to mock transfected cells (system: human EGFR mRNA) for CSASAStScSaStScScSaSaScSaSCSTST (antisense l[5mC]*lA*lA*dT*dC*dA*dT*dC*dC*dA*dA*dC*dA*l[5mC]*lT*lT) [SEQ ID NO: 177, β-D-oxy-LNA/DNA phosphorothioate gapmer antisense oligonucleotide targeting HER3]
Result string: 0

Query string: Provide the reported EGFR: percentage down-regulation of mRNA relative to mock transfected cells (system: human EGFR mRNA) for TSCSASaStScSaStScScSaSaScSASCST (antisense lT*l[5mC]*lA*dA*dT*dC*dA*dT*dC*dC*dA*dA*dC*lA*l[5mC]*lT) [SEQ ID NO: 178, β-D-oxy-LNA/DNA phosphorothioate gapmer antisense oligonucleotide targeting HER3]
Result string: 0

Query string: Provide the reported EGFR: percentage down-regulation of mRNA relative to mock transfected cells (system: human EGFR mRNA) for CSTSCScSaSgSaScSaStScSaScSTSCST (antisense l[5mC]*lT*l[5mC]*dC*dA*dG*dA*dC*dA*dT*dC*dA*dC*lT*l[5mC]*lT) [SEQ ID NO: 170, β-D-oxy-LNA/DNA phosphorothioate gapmer antisense oligonucleotide targeting HER3]
Result string: 91.5
